Sourced from ChEMBL document CHEMBL5058577

Below, each entry is listed alongside its reported Population Mitotic Cells (%).
Test system: Fibroblast
PROCEDURE_TEXT: Multiplex assay against human fibroblast
Format: toxicity, cell-based
ASSAY_CONDITIONS: 48 h, 1 µM, compound concentration 1 uM, replicate 2
QUANTITY_NAME: Population Mitotic Cells (%)

- CN(C)C/C=C/C(=O)Nc1ccc(C(=O)N2CCCC(Nc3ncc(Cl)c(-c4c[nH]c5ccccc45)n3)C2)cc1 (stereo not drawn): 40
- COc1cc2nc(N3CCN(C(=O)COc4c(OC)cccc4C(C)C)CC3)nc(N)c2cc1OC.Cl.Cl: 57
- Cc1c(Cc2ccc3ccccc3n2)c2cc(F)ccc2n1CC(=O)O: 38
- CC(C)(O)C(=O)N1CCN(c2ccc(C(F)(F)F)c(C3=C(c4c[nH]c5ccccc45)C(=O)NC3=O)c2)CC1: 58
- COc1ccc2c(c1OCc1ccccc1)C[C@@H](C(=O)O)N(C(=O)C(c1ccccc1)c1ccccc1)C2: 58
- C=CCN1C[C@H](C(=O)N(CCCN(C)C)C(=O)NCC)C[C@@H]2c3cccc4[nH]cc(c34)C[C@H]21: 41
- CCCCC[C@H](O)/C=C/[C@H]1[C@H](O)CC(=O)[C@@H]1CCCCCCC(=O)O: 44
- Nc1nc(-c2ccco2)c2cnn(Cc3ccccc3F)c2n1: 42
